# measurement protocol: Air diffusion coefficient of perfume materials
# Type: physicochemical
Our labelling divides records by Air Diffusion Coefficient into ranges: lower: < 0.05 cm²/s; middle: ≥ 0.05 cm²/s and < 0.06 cm²/s; upper: ≥ 0.06 cm²/s

Some solved entries appear below for comparison.
CC1CCC(C(C)(C)O)CC1 (centres unmarked) [DIHYDRO TERPINEOL]
middle
CCCCCCCCCCC=CC#N
lower
CC/C(=C\CC1CC=C(C)C1(C)C)CO (centres unmarked)
lower
COC(Cc1ccccc1)OC
middle
C[C@@H]1CC[C@H]2C(C)(C)[C@H]3C[C@@]12CC[C@@]3(C)O
lower

### Prompt Returns: class label. Input: CCCCCCC(C=O)=Cc1ccccc1
### Response lower

### Prompt Proceed to c1ccc(CCOC2CCCCC2)cc1
### Response lower

### Prompt Lookup CCCCCCCCCCCC#N
### Response lower

### Prompt Would you mind doing CCOC(=O)CC(C)=O [ETHYL ACETOACETATE] as well?
### Response middle

### Prompt Item: CC(C)CC1CC(C)(O)CCO1 (centres unmarked)
### Response middle

### Prompt Query CCC(C)(O)CCCC(C)C (centres unmarked) [TETRAHYDRO LINAILOOL] next
### Response middle

### Prompt Can you check OCCC1CCCCC1 next?
### Response upper

### Prompt Repeat with CC(C=O)Cc1ccc(C(C)(C)C)cc1 (centres unmarked)
### Response lower

### Prompt Then this molecule: OCCc1ccccc1
### Response upper

### Prompt Can you handle O=Cc1ccccc1 next?
### Response upper

### Prompt Request: CC(C)C1CCC(CO)CC1 (centres unmarked)
### Response middle

### Prompt Next up: CCCCCC1(C)CCC(C)(C)C1=O (centres unmarked)
### Response lower

### Prompt Param item: C=CCOC(=O)CCCCCC [ALLYL HEPTOATE (C-7), ALLYL HEPTOATE]
### Response middle

### Prompt One more molecule: CC(=O)OCC=C(C)C [PRENYL ACETATE]
### Response upper

### Prompt Next entry: CC(=O)OC/C=C(\C)CCC=C(C)C [GERANYL ACETATE]
### Response lower

----------
# measurement protocol: Air diffusion coefficient of perfume materials
# Type: physicochemical
quantity kind: Air Diffusion Coefficient (cm²/s)
Report only the number, with the unit cm²/s understood.

CC(=O)C1(C)CC2=C(CCCC2(C)C)CC1C (stereo not drawn) [ISO E SUPER]
0.0418
CCc1ccc(CC(C)(C)C=O)cc1 [FLORAZONE]
0.0499
CCCCCC1CCCC1=O (stereo not drawn) [DELPHONE, FIRMENICH]
0.0546
CC(=O)O[C@@H]1C[C@H]2CC[C@]1(C)C2(C)C (racemic) [ISO BORNYL ACETATE]
0.0492
CC(C)=CCCC(C)C=O (stereo not drawn) [MELONAL]
0.0579

Now for another entry.
### Prompt Data request, read-out Air Diffusion Coefficient, for CC(C)CCOCCc1ccccc1 [ANTHER]
### Response 0.0486

----------
Collected Air Diffusion Coefficient values appear next to each entry.
# measurement protocol: Air diffusion coefficient of perfume materials
# Format: physicochemical
Output should be the measured figure followed by the unit it is expressed in.

Please review the following examples before continuing.
C=CCc1ccc(OC)cc1
0.0591 cm²/s
C=C1C2CCC(C2)C1(C)C (stereo not drawn)
0.0613 cm²/s

Please turn your attention to the following entry.
### Prompt What Air Diffusion Coefficient value was documented for this compound, C=CCOC(=O)CCC1CCCCC1 [ALLYL CYCLOHEXYL PROPIONATE] ?
### Response 0.0486 cm²/s

From: patent US20040037799A1
